Kindly supply the reported log10 of GI50 values for the records listed here.
# Test system: SJ-G2 glioblastoma
# test method notes: MTT growth inhibition assay, SJ-G2
# Type: cell-based, human
# stated conditions: 72 h
Field: value | Transform: log10 | Quantity: GI50 | Unit: nM

Problem: Give reported log10 of GI50 value for `Cc1c(C)c2c3c4c1=CC=C[N]4[Pt+2]([OH])([O]C(=O)Cc1ccc(I)cc1)[N]3C=CC=2.N[C@H]1CCCC[C@@H]1N`
Result: 2.72

Problem: Give reported log10 of GI50 value for N[C@H]1CCCC[C@@H]1N.O=C([O-])Cc1ccc(F)cc1.[OH-].[Pt+4].c1cnc2c(c1)ccc1cccnc12 [Complex 3, [Pt^IV(phen)(SS-DACH)(4-FPA)(OH)]^2+]
Result: 2.53

Problem: Give reported log10 of GI50 value for N[C@H]1CCCC[C@@H]1N.O=C(Cc1ccc(Cl)cc1)[O][Pt+2]1([OH])[N]2C=CC=c3ccc4c(c32)[N]1C=CC=4 [Complex 1, [Pt^IV(phen)(SS-DACH)(4-CPA)(OH)]^2+]
Result: 2.62

Problem: Give reported log10 of GI50 value for N[C@H]1CCCC[C@@H]1N.O=C([O-])Cc1ccc(Br)cc1.[OH-].[Pt+4].c1cnc2c(c1)ccc1cccnc12 [Complex 5, [Pt^IV(phen)(SS-DACH)(4-BPA)(OH)]^2+]
Result: 2.54

Problem: Give reported log10 of GI50 value for `Cc1c(C)c2c3c4c1=CC=C[N]4[Pt+2]([OH])([O]C(=O)Cc1ccc(Cl)cc1)[N]3C=CC=2.N[C@H]1CCCC[C@@H]1N`
Result: 2.00

Problem: Give reported log10 of GI50 value for `Cc1c(C)c2c3c4c1=CC=C[N]4[Pt+2]([OH])([O]C(=O)Cc1ccc(F)cc1)[N]3C=CC=2.N[C@H]1CCCC[C@@H]1N`
Result: 1.48

Problem: Give reported log10 of GI50 value for N[C@H]1CCCC[C@@H]1N.O=C(Cc1ccc(I)cc1)[O][Pt+2]1([OH])[N]2C=CC=c3ccc4c(c32)[N]1C=CC=4 [Complex 7, [Pt^IV(phen)(SS-DACH)(4-IPA)(OH)]^2+]
Result: 2.77

Problem: Give reported log10 of GI50 value for `Cc1c(C)c2c3c4c1=CC=C[N]4[Pt+2]([OH])([O]C(=O)Cc1ccc(Br)cc1)[N]3C=CC=2.N[C@H]1CCCC[C@@H]1N`
Result: 1.36
